Assay: Cell viability, NRU assay
Type: cell-based
Conditions: human, A431 cells (squamous cell carcinoma), A431, surfactant in solution at 35.6 µg/mL, read-out: cellular viability
Property label: viability at 24 h, 35.6 µg/mL (%)

Molecule | Property label | Val
CCCCCCCCCCCC(=O)NC(CCCNC(=N)N)C(=O)NCCCCCCCCCNC(=O)C(CCCNC(=N)N)NC(=O)CCCCCCCCCCC (stereo not shown) | viability at 24 h, 35.6 µg/mL | 60.7

###

Target: porcine pancreatic elastase (Sus scrofa)
Sequence (P00772 27-266): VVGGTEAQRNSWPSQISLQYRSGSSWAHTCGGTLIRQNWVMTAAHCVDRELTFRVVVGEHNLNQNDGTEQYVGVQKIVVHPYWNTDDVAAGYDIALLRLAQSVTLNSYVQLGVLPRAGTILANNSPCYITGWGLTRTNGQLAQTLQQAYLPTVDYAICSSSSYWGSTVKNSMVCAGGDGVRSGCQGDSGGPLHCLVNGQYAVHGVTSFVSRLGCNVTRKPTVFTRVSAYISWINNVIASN
Assay: Elastase inhibitory assay
Format: biochemical
Conditions: 40 µL of 1000 µg/mL stock; EGCG 250 μM
Listed below: anti-elastase activity (inhibition) values for each entry.

Molecule | anti-elastase activity (inhibition) [%]
CCCCCCCCCCCC(=O)NC(CCCNC(=N)N)C(=O)NCCCNC(=O)C(CCCNC(=N)N)NC(=O)CCCCCCCCCCC (stereo not shown) | 17
CCCCCCCCCCCC(=O)NC(CCCNC(=N)N)C(=O)NCCCCCCNC(=O)C(CCCNC(=N)N)NC(=O)CCCCCCCCCCC (stereo not shown) | 10.5
CCCCCCCCCCCC(=O)NC(CCCNC(=N)N)C(=O)NCCCCCCCCCNC(=O)C(CCCNC(=N)N)NC(=O)CCCCCCCCCCC (stereo not shown) | 15.9
O=C(O[C@@H]1Cc2c(O)cc(O)cc2O[C@@H]1c1cc(O)c(O)c(O)c1)c1cc(O)c(O)c(O)c1 [EGCG, epigalocatequin-3-galate, reference compound] | 67.3
